Below, each of the molecules is paired with its reported IC50 value.
Target: recombinant human Lp-PLA2 (Homo sapiens)
Sequence (Q13093 22-441): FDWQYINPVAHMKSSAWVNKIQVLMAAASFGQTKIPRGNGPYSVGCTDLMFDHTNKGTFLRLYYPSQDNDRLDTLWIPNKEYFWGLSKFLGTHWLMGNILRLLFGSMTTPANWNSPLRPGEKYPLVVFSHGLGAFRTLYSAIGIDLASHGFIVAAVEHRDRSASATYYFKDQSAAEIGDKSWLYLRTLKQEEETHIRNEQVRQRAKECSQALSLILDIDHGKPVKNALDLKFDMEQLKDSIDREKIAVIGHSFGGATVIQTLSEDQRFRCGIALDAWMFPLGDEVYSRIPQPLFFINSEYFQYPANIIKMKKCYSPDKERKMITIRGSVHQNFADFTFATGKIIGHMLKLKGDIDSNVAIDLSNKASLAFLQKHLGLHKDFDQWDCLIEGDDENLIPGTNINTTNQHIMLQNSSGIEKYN
Assay: Recombinant human Lp-PLA2 assay (rhLp-PLA2, PED6 assay)
Details: recombinant human Lp-PLA2, PED6 substrate; upper limit for pIC50 in this assay is 9.3
Where a name gives a salt, the structure may show the parent alone.

Reference set, count: 8
Which IC50 is listed for N#Cc1cc(COc2cc3n(c(=O)n2)CCN3)ccc1Oc1ccc(Cl)c(C(F)(F)F)c1 [Example 96] ?
≤ 10 nM

Please answer likewise for N#Cc1cc(COc2cc3n(c(=O)n2)CCN3)ccc1Oc1ccc(F)c(Cl)c1 [Example E76, trifluoroacetic acid salt]
≤ 1 nM

Please answer likewise for CN1CCn2c1cc(OCc1ccc(Oc3cc(F)c(F)c(F)c3)c(C#N)c1)nc2=O [Example E38, trifluoroacetic acid salt]
≤ 10 nM

Please answer likewise for CN1CCn2c1cc(OCc1ccc(Oc3ccnc(C(F)(F)F)c3)cc1)nc2=O [Example 123]
≤ 10 nM

Please answer likewise for CN1CCn2c1cc(OCc1cc(F)c(Oc3ccc(F)c(C(F)(F)F)c3)c(F)c1)nc2=O [Example E81]
≤ 1 nM

Please answer likewise for O=c1nc(OCc2ccc(Oc3ccc(F)c(C(F)(F)F)c3)c(F)c2)cc2n1CCN2 [Example E66]
≤ 1 nM

Please answer likewise for N#Cc1cc(COc2cc3n(c(=O)n2)CCN3)ccc1Oc1ccc(C(F)(F)F)nc1 [Example 93, trifluoroacetic acid salt]
≤ 10 nM

Please answer likewise for CC(C)N1CCn2c1cc(OCc1ccc(Oc3ccc(Cl)c(C(F)(F)F)c3)cc1)nc2=O [Example E59]
≤ 10 nM

***
Which IC50 is listed for CN1CCn2c1cc(OCc1ccc(Oc3ccc(C#N)c(Cl)c3)c(F)c1)nc2=O [Example 128] ?
≤ 1 nM

Please answer likewise for N#Cc1cc(COc2cc3n(c(=O)n2)CCN3)ccc1Oc1ccnc(C(F)(F)F)c1 [Example 91]
≤ 10 nM

Please answer likewise for CN1CCn2c1cc(OCc1cc(F)c(Oc3cccc(Cl)c3)c(F)c1)nc2=O [Example E82]
≤ 1 nM

Please answer likewise for CN1CCn2c1cc(OCc1ccc(Oc3ccc(C(F)(F)F)nc3)c(C#N)c1)nc2=O [Example E49]
≤ 10 nM

Please answer likewise for CN1CCn2c1cc(OCc1ccc(Oc3ccc(Cl)c(C#N)c3)c(C#N)c1)nc2=O [Example 114]
≤ 10 nM

Please answer likewise for CN1CCn2c1cc(OCc1ccc(Oc3ccc(C(F)(F)F)cc3)c(C#N)c1)nc2=O [Example E24, trifluoroacetic acid salt]
≤ 10 nM

Please answer likewise for CN1CCn2c1cc(OCc1cc(F)c(Oc3cccc(C#N)c3)c(F)c1)nc2=O [Example 104]
≤ 10 nM

Please answer likewise for CN1CCn2c1cc(OCc1cc(F)c(Oc3ccc(C(F)(F)F)cc3)c(F)c1)nc2=O [Example E84]
≤ 10 nM

Please answer likewise for CN1CCn2c1cc(OCc1ccc(Oc3ccc(F)cc3)c(C#N)c1)nc2=O [Example E22]
≤ 10 nM

Please answer likewise for N#Cc1cc(COc2cc3n(c(=O)n2)CCN3)ccc1Oc1cnc(F)c(F)c1 [Example 117]
≤ 10 nM

Please answer likewise for CN1CCn2c1cc(OCc1ccc(Oc3ccnc(C(F)(F)F)c3)c(F)c1)nc2=O [Example 94]
1.58 nM

Please answer likewise for O=c1nc(OCc2ccc(Oc3cccc(C(F)(F)F)c3)c(Cl)c2)cc2n1CCN2 [Example E61]
≤ 10 nM

Please answer likewise for CN1CCn2c1cc(OCc1ccc(Oc3ccc(C#N)c(F)c3)c(F)c1)nc2=O [Example 136]
≤ 10 nM

Please answer likewise for CN1CCn2c1cc(OCc1ccc(Oc3ccc(Cl)nc3)c(F)c1)nc2=O [Example 103, trifluoroacetic acid salt]
≤ 10 nM

Please answer likewise for CN1CCn2c1cc(OCc1ccc(Oc3cnc(F)c(F)c3)c(C#N)c1)nc2=O [Example E73]
≤ 10 nM

Please answer likewise for CN1CCn2c1cc(OCc1ccc(Oc3ccc(F)c(C(F)(F)F)c3)cc1)nc2=O [Example E29]
≤ 10 nM

Please answer likewise for CN1CCn2c1cc(OCc1ccc(Oc3cncc(Cl)c3)c(C#N)c1)nc2=O [Example 134]
≤ 10 nM

Please answer likewise for CN1CCn2c1cc(OCc1cc(F)c(Oc3ccc(C#N)c(C(F)(F)F)c3)c(F)c1)nc2=O [Example 144]
< 0.501 nM

Please answer likewise for CN1CCn2c1cc(OCc1ccc(Oc3cccc(C(F)(F)F)c3)c(F)c1)nc2=O [Example E20]
≤ 10 nM
